# Tested system: Cyclin-dependent kinase 2 (Homo sapiens) (UniProt P24941)
# Condition parameters: Compound concentration 20.0 uM
# Description: Thermal Shift Assay. Domain: start/stop: M1-L298
Classification scheme (ΔTm): band A (below -0.09 °C), band B (-0.09 °C to below 0.2 °C), band C (0.2 °C or more)

Query: # bin label for `CCCn1/c(=N/C(=O)c2cccc(C(N)=O)c2)[nH]c2ccccc21`
Result: band B

Query: # bin label for `O=C(CCCCCCNC(=O)c1cnc(N(c2ccccc2)c2ccccc2Cl)nc1)NO`
Result: band B

Query: # bin label for `C[C@@H]1CN(Cc2ncccn2)C[C@H]1c1nc2c(cnn2C2CCOCC2)c(=O)[nH]1`
Result: band B

Query: # bin label for `CC(C)Cn1c(=O)n(C)c(=O)c2c(C(=O)N3CC[C@@H](O)C3)c(Cc3ccnc4ccccc34)sc21`
Result: band B

Query: # bin label for `Cc1ncsc1-c1ccc(CNC(=O)[C@@H]2C[C@@H](O)CN2C(=O)[C@@H](NC(=O)COCC(C)(COCCOCCOCCNC(=O)C[C@@H]2N=C(c3ccc(Cl)cc3)c3c(sc(C)c3C)-n3c(C)nnc32)COCCOCCOCCNC(=O)C[C@@H]2N=C(c3ccc(Cl)cc3)c3c(sc(C)c3C)-n3c(C)nnc32)C(C)(C)C)cc1`
Result: band A

Query: # bin label for `C[C@H](NC(=O)CCc1nc2ccccc2c(=O)[nH]1)c1ccccc1`
Result: band C

Query: # bin label for `CCN(CCN(C)C)C(=O)CNCc1cc(C(N)=O)ccn1`
Result: band C

Query: # bin label for `O=C(CN1CCN(c2ccc(F)cn2)CC1)Nc1nc2c(s1)CCCC2`
Result: band B

Query: # bin label for `CCCCNc1cc(C(=O)O)cc(S(N)(=O)=O)c1Oc1ccccc1`
Result: band A

Query: # bin label for `O=C(NC1CCC1)c1ccc2nc(-c3cccc(NS(=O)(=O)NCCN4CCCCC4)c3)cn2c1`
Result: band B

Query: # bin label for `CCCCCCCCCCCCC/C=C/[C@@H](O)[C@H](CO)NC(=O)CCl`
Result: band A

Query: # bin label for `O=C(c1cc(Cc2n[nH]c(=O)c3ccccc23)ccc1F)N1CCN(C(=O)C2CC2)CC1`
Result: band C

Query: # bin label for `Cc1[nH]c2c(N3CCCCC3)c(-c3ccccc3)nn2c(=O)c1-c1ccc(O)cc1`
Result: band C

Query: # bin label for `Cn1cc(C(=O)Nc2ccc([C@@H]3C[C@H]3NCC3CC3)cc2)cn1`
Result: band B

Query: # bin label for `COc1ccc(CNc2nc(N3CCC[C@H]3CO)ncc2C(=O)NCc2ncccn2)cc1Cl`
Result: band A

Query: # bin label for `C[C@@H]1CN(c2ncc(Cl)c(Nc3ccc4c(c3)n(CCC(C)(C)O)c(=O)n4C)n2)C[C@H](C)C1(F)F`
Result: band C

Query: # bin label for `O=C(N(CCc1ccccc1)C1CCCCC1)n1ncc(-c2ccc(OC(F)(F)F)cc2)n1`
Result: band B

Query: # bin label for `Nc1cccc(Nc2ncc(-c3ccc(Cl)cc3)o2)c1`
Result: band C

Query: # bin label for `Cn1cc(-c2ccncc2)c(-c2ccc(OCc3ccc4ccccc4n3)cc2)n1`
Result: band A

Query: # bin label for `CC/C(=C(/c1ccc(/C=C/C(=O)O)cc1)c1ccc2[nH]ncc2c1)c1ccc(F)cc1Cl`
Result: band A

Query: # bin label for O=C(N1CCCCC1c1ccccc1)n1cc(-c2ccc(-c3cccc(CO)c3)cc2)nn1 (stereo not given)
Result: band A

Query: # bin label for `C[C@@H]1CN(c2nccc(Nc3ccc4c(c3)n(CCC(C)(C)O)c(=O)n4C)n2)C[C@H](C)C1(F)F`
Result: band C

Query: # bin label for `COC(=O)[C@H]1[C@H]2C[C@@H]3c4[nH]c5cc(OC)ccc5c4CCN3C[C@H]2C[C@@H](OC(=O)c2cc(OC)c(OC)c(OC)c2)[C@@H]1OC`
Result: band B

Query: # bin label for `CC#C[C@]1(O)CC[C@H]2[C@@H]3CCC4=CC(=O)CCC4=C3[C@@H](c3ccc(N(C)C)cc3)C[C@@]21C`
Result: band B

Query: # bin label for `O=C(COc1ccc(-c2oc3cc(O)c(C(=O)O)cc3c2C#Cc2cccc(Cl)c2)cc1)NC1CC1`
Result: band C

Query: # bin label for `CC(C)(C)NS(=O)(=O)c1ccc(NC(=O)[C@H](Cc2ccccc2)NC(=O)c2ccc(F)cc2)cc1`
Result: band B

Query: # bin label for `C[C@H](NC(=O)[C@H](Cc1ccccc1)NC(=O)OCc1ccccc1)C(=O)CF`
Result: band B
